experiment: protein stability index of a GFP-peptide fusion (yeast GPS) (PSI 1-4); higher = more stable; sorted into four equal gates, so the index is relative within each strain; conditions: ubr1∆
Use 3 as the dividing line for protein stability index, with the line itself on the true side and lower values as false.

Prompt: Determine whether this sequence has protein stability index no lower than 3: YWYEQDSAKEWPQSKNC [RPB3]
Completion: true

Prompt: Determine whether this sequence has protein stability index no lower than 3: KGPAIDELSSKELVECH [NNF1]
Completion: false

Prompt: Determine whether this sequence has protein stability index no lower than 3: HPYEYEIDHQEYSPEIL [RRP6]
Completion: false

Prompt: Determine whether this sequence has protein stability index no lower than 3: DIKVLKRQLIKERNQKF [YIL149C/MLP2]
Completion: false

Prompt: Determine whether this sequence has protein stability index no lower than 3: KKKTKKELELERKERED [SWI1]
Completion: true

----------
assay: protein stability index of a GFP-peptide fusion (yeast GPS) (PSI 1-4); higher = more stable; sorted into four equal gates, so the index is relative within each strain; details: ubr1∆
Use 3 as the dividing line for protein stability index, with the line itself on the Y side and lower values as N.

Prompt: Determine whether this sequence has protein stability index no lower than 3: NKIIPNVGLCITIYDLL [RPC25]
Completion: N

Prompt: Determine whether this sequence has protein stability index no lower than 3: KTFKNPKYESLKLEYYN [RPN5]
Completion: N

Prompt: Determine whether this sequence has protein stability index no lower than 3: KILNIIKCSQSSHLSDN [POP5]
Completion: N

Prompt: Determine whether this sequence has protein stability index no lower than 3: NSSSSTPNTNSNSTPNA [SWI1]
Completion: Y

Prompt: Determine whether this sequence has protein stability index no lower than 3: IKIVSDKKVLVKVQPEG [RPT6]
Completion: N

Prompt: Determine whether this sequence has protein stability index no lower than 3: LLVPLALLTKRLYPHWD [CSN12]
Completion: N

Prompt: Determine whether this sequence has protein stability index no lower than 3: ILAAAHRDAYSGGSVNL [PRE2]
Completion: N

Prompt: Determine whether this sequence has protein stability index no lower than 3: AAQTNATFLKLAAPQLV [RPT5]
Completion: N

Prompt: Determine whether this sequence has protein stability index no lower than 3: KLIAAAEDGSRSTKDMI [SNF6]
Completion: Y

Prompt: Determine whether this sequence has protein stability index no lower than 3: DNIGEIDESLFNLLILS [YCG1]
Completion: Y

Prompt: Determine whether this sequence has protein stability index no lower than 3: MSDFQKEKVEEQEQQQQ [RPS20]
Completion: Y

Prompt: Determine whether this sequence has protein stability index no lower than 3: MGIVQDTLCGIRKLTLR [RPO21]
Completion: N

Prompt: Determine whether this sequence has protein stability index no lower than 3: LATGPNLTSEIEDLRAD [YOR098C/NUP1]
Completion: Y

Prompt: Determine whether this sequence has protein stability index no lower than 3: ASLNLLQLAPGAHLGRF [RPL4A]
Completion: Y

Prompt: Determine whether this sequence has protein stability index no lower than 3: SPQLTAIIGLKSGTSHD [SNF12]
Completion: N

Prompt: Determine whether this sequence has protein stability index no lower than 3: QSSAIGALQESVEAYLV [HHT1]
Completion: N

Prompt: Determine whether this sequence has protein stability index no lower than 3: FFAYFIGWCKEDPKRRA [YJL039C/NUP192]
Completion: Y

Prompt: Determine whether this sequence has protein stability index no lower than 3: RKKTPAGDWKYDRQLSS [FAS2]
Completion: N

Prompt: Determine whether this sequence has protein stability index no lower than 3: RRGTALGIKKEKRIQYA [RPB2]
Completion: N

Prompt: Determine whether this sequence has protein stability index no lower than 3: SEISDGKLKRCSRCGSV [SIN4]
Completion: Y

Prompt: Determine whether this sequence has protein stability index no lower than 3: EDGLGPLMAKSVKKAGA [ARP7]
Completion: Y

Prompt: Determine whether this sequence has protein stability index no lower than 3: TKPNVLNDPSLKIQFIL [SIN4]
Completion: N

Prompt: Determine whether this sequence has protein stability index no lower than 3: LNESDCLEACSFILSSL [YDL116W/NUP84]
Completion: N

Prompt: Determine whether this sequence has protein stability index no lower than 3: KNINIGKHSQEQNSSSA [SIR4]
Completion: Y

Prompt: Determine whether this sequence has protein stability index no lower than 3: TLDYAERHGYIRGIVKQ [RPL2A]
Completion: N
